Ref: PubChem BioAssay (NCATS)

System: C33A
Assay: Primary qHTS to identify gynecologic anti-cancer compounds using libraries of approved drugs and bioactive compounds (AID 1345084); further: nearly all actives have a fitted effect of over 55% in size
Conditions: Gynecologic cancer cell panel viability, ATPlite luminescence, 48 h; series mostly up to 57.5 µM
Inconclusive results are not listed. Active and inactive are the calls of the source. The call rests on the fitted dose curve; in most records, active means well fitted cell-killing curve with a large enough effect; inconclusive means small, poorly fitted or top-dose-only effect, or effect the other way; inactive means flat fitted curve, though single readings scatter.
# output must be one of T for active, F for inactive

Field: example entries. Status: answers known.
# compound, discrete_label
data = [
    ("COC(=O)C[C@H]1[C@]2(C)C3=C(C)[C@H](c4ccoc4)C[C@H]3O[C@@H]2[C@H](O)C2[C@](C)(C(=O)OC)C=CC(=O)[C@@]21C (stereo partly drawn)", "F"),
    ("C=C1C(=O)OC2C=C(C)CC/C=C(\\CO)CC(O)C12 (stereo not drawn)", "F"),
    ("Cn1ncnc1[C@H]1c2n[nH]c(=O)c3cc(F)cc(c23)N[C@@H]1c1ccc(F)cc1", "F"),
    ("CN(CC1COCCO1)S(=O)(=O)Nc1ccc2ccc3ncc(-c4cnn(C)c4)cc3c(=O)c2c1 (stereo not drawn)", "F"),
    ("Cc1cc2c(N3CCCC3)nc(N3CCCC3)nc2n1C", "F"),
    ("C[C@]12CC[C@@H]3c4ccc(O)c(O)c4CC[C@H]3[C@@H]1CCC2=O", "F"),
]

Task: Recorded test call requested for `COc1ccc([C@H](Cc2ccncc2)c2ccccc2)cc1OC1CCCC1`
Output: F

Task: Recorded test call requested for `CCn1c(-c2nonc2N)nc2c(C#CCO)ncc(OCCCN)c21`
Output: F

Task: Recorded test call requested for `O=C(Nc1ccccc1)N1CCN(c2nc(-c3ccccc3)ns2)CC1`
Output: F
